system: Staphylococcus; assay: Antibacterial activity against 10^4 to 10^5 CFU methicillin-susceptible coagulase-negative Staphylococcus after 18 hrs by CLSI 2-fold agar dilution method; type: functional
List of MIC90 values.
Form entry: value (µg/mL) — number only.

Exercise: Fill in the blank: the reported MIC90 of Cc1onc(-c2ccccc2)c1C(=O)N[C@@H]1C(=O)N2[C@@H]1SC(C)(C)[C@@H]2C(=O)O is ____.
Solution: 1

Exercise: Fill in the blank: the reported MIC90 of CC(=O)NC[C@H]1CN(c2ccc(N3CCOCC3)c(F)c2)C(=O)O1 is ____.
Solution: 2

Exercise: Fill in the blank: the reported MIC90 of CO/N=C1\CN(c2nc3c(cc2F)c(=O)c(C(=O)O)cn3C2CC2)CC1CN (stereo unspecified) is ____.
Solution: 0.5

Exercise: Fill in the blank: the reported MIC90 of CN[C@H](CC(C)C)C(=O)N[C@H]1C(=O)N[C@@H](CC(N)=O)C(=O)N[C@H]2C(=O)N[C@H]3C(=O)N[C@H](C(=O)N[C@H](C(=O)O)c4cc(O)cc(O)c4-c4cc3ccc4O)[C@H](O)c3ccc(c(Cl)c3)Oc3cc2cc(c3O[C@@H]2O[C@H](CO)[C@@H](O)[C@H](O)[C@H]2O[C@H]2C[C@](C)(N)[C@H](O)[C@H](C)O2)Oc2ccc(cc2Cl)[C@H]1O is ____.
Solution: 4

Exercise: Fill in the blank: the reported MIC90 of CN1CCN(c2ccc(N3C[C@H](CO)OC3=O)cc2F)C=N1 is ____.
Solution: 0.5

Data credit: ChEMBL document CHEMBL1671764
